SYSTEM: Follistatin-related protein 3 (Homo sapiens)
METHOD: FSTL3 binders on small-molecule microarrays, primary screen, biochemical, small-molecule microarray, 635 nm fluorescence (AID 1105);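 further: score merges emission near 667 nm and signal to noise per printed spot across three slides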
CONDITION DETAILS: FSTL3 binding, higher = more signal
MEASURED ATTRIBUTE: composite z-score
One number for each entry.

Test system Follistatin-related protein 3 (Homo sapiens); read-out composite z-score; what value for "O=C1[C@H]2[C@H]3[C@H](O)[C@H](O)CC(=NO[C@@H]4O[C@H](CO)[C@@H](O)[C@H](O)[C@H]4O)[C@H]3CC[C@H]2C(=O)N1C[C@@H]1CCCO1" ? 0.0553

Give recorded composite z-score with Follistatin-related protein 3 (Homo sapiens) for the following compound: "COC(=O)[C@H](CCSC)NC(=O)CC=C[C@@H](C)CO" 1.46

What is its composite z-score for Follistatin-related protein 3 (Homo sapiens)? Entry: CCOC(=O)[C@H](CC(C)C)NC(=O)CCC1CC(OC(=O)NCc2ccc3c(c2)OCO3)CC2(CCCC(COC(=O)NCCOc3ccccc3)O2)O1 (stereo not given in full) 1.22

Write down the reported composite z-score of "COc1ccc(COC(=O)NN=C2C[C@@H](O)[C@@H](O)[C@@H]3[C@@H]4C(=O)N(C(C)(C)C)C(=O)[C@@H]4CC[C@@H]23)cc1" , test system: Follistatin-related protein 3 (Homo sapiens). 0.967

Give composite z-score for all compounds that follow.
1. CC(C)[C@@H](OCc1ccccc1)[C@H](C)C=NO[C@H](C)c1cn([C@@H]2COC[C@H]2O)nn1
2. O=C1[C@H]2[C@H]3[C@H](O)[C@H](O)CC(=NOC[C@@H](O)COCc4ccco4)[C@@H]3CC[C@H]2C(=O)N1c1cccc(Oc2ccccc2)c1
3. O=C1[C@H]2[C@H]3[C@H](O)[C@H](O)CC(=NOCc4ccccc4)[C@H]3CC[C@H]2C(=O)N1C1CCCCC1
4. CC(=O)OC[C@H]1O[C@H](CC=NO[C@H](C)c2cn([C@@H]3COC[C@H]3O)nn2)C=C[C@@H]1OC(C)=O
5. CCN1C(=O)[C@H]2[C@H]3[C@H](O)[C@H](O)CC(=NO[C@H](C)c4cn([C@@H]5COC[C@H]5O)nn4)[C@@H]3CC[C@H]2C1=O
6. CCN1C(=O)[C@H]2[C@H]3[C@H](O)[C@H](O)CC(=NOC[C@@H](O)COCc4ccco4)[C@H]3CC[C@H]2C1=O
7. COC(=O)[C@H](C)NC(=O)CCC1CC(OC(=O)NCc2cccc3ccccc23)CC2(CCCC(COC(=O)NCCc3ccccc3OC)O2)O1 (stereo not given in full)

[0.448, -0.213, 0.448, 0.255, -0.169, 0.757, 1.25]

Fill in composite z-score for each of the 4 compounds listed.
1. CCN1C(=O)[C@H]2[C@H]3[C@H](O)[C@H](O)CC(=NOCC=C(C)CCC=C(C)C)[C@@H]3CC[C@H]2C1=O
2. COC(=O)[C@H](Cc1ccccc1)NC(=O)[C@@H](C)CO
3. CC(=O)OC[C@H]1O[C@H](CCON=C(C)CCN2CCCc3nc(C)c(C)cc32)C=C[C@@H]1OC(C)=O
4. CON=C(C)CCN1CCCc2nc(C)c(C)cc21

[0.972, 1.03, 1.16, 0.68]

* * *

For each of the compounds below, state its composite z-score.
Tested on: wheat germ agglutinin (Triticum aestivum), Alexa647-labelled
METHOD: wheat germ agglutinin binders on compound microarrays, profiling panel, artefact control for SMM control-protein annotation, biochemical, small-molecule microarray, 635/667 nm fluorescence (AID 1140);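 further: score merges 667 nm feature emission with signal to noise over triplicate slides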
CONDITION DETAILS: WGA-A647 binding, 635 nm fluorescence, higher = more signal
Answers are plain numbers.

Known results for compounds:
Query: composite z-score; subject: "CC(C)(C)N1C(=O)[C@H]2[C@H]3[C@H](O)[C@H](O)CC(=NOC[C@@H](O)COCc4ccco4)[C@H]3CC[C@H]2C1=O" 0.495

// composite z-score lookup, key: "O=C1[C@H]2[C@H]3[C@H](O)[C@H](O)CC(=NOCc4ccccc4)[C@@H]3CC[C@H]2C(=O)N1c1cccc(Oc2ccccc2)c1" 0.315

What does the data say about its composite z-score? Entry: COC(=O)[C@H](C)NC(=O)CCC1CC(OC(=O)NCc2cccc3ccccc23)CC2(CCCC(COC(=O)NCCCN3CCCC3=O)O2)O1 (some centres undefined) 0.485

Continuing:
Which composite z-score is listed for "CO[C@H]1COC(=O)[C@H](C)COC(=O)[C@@H](OCc2ccccc2)C=C[C@@H]1C" ? -0.49

* * *

METHOD: small-molecule binders of probe aNOTCH3, primary screen, biochemical, small-molecule microarray, 635/667 nm fluorescence (AID 1120);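 further: probe is a biotin-tagged antibody raised against NOTCH3 rather than NOTCH3 protein; score merges spot fluorescence near 667 nm with spot signal to noise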
CONDITION DETAILS: higher = more signal
MEASURED ATTRIBUTE: composite z-score
Give bare numbers.

Look up composite z-score: "CC(CCN1CCCCc2nc(C)c(C)cc21)=NOC[C@@H](O)[C@H]1O[C@@H]2OC(C)(C)O[C@@H]2[C@H]1O" -0.0363

# query: composite z-score of entry "O=C1[C@H]2[C@H]3[C@H](O)[C@H](O)CC(=NO[C@@H]4O[C@H](CO)[C@@H](O)[C@H](O)[C@H]4O)[C@@H]3CC[C@H]2C(=O)N1C1CCCCC1" 0.0876

Hi! Can you tell me composite z-score for each of these compounds?
1. CC(=O)OC[C@H]1O[C@H](CCON=C(C)C)C=C[C@@H]1OC(C)=O
2. CO[C@@H](C1CCCCC1)[C@@H](C)[C@H](OCc1cccc(Br)c1)[C@@H](C)CO

1. -0.0362
2. -0.207

# per-item lookup of composite z-score; items listed below
1. COc1ccc(O[C@H]2C=C[C@@H](c3ccccc3)O[C@@H]2CON=C(C)CCN2CCCc3nc(C)c(C)cc32)cc1
2. CC(CCN1CCCc2nc(C)c(C)cc21)=NO[C@H](C)c1cn([C@@H]2COC[C@H]2O)nn1
3. C#CCCCON=C1C[C@@H](O)[C@@H](O)[C@@H]2[C@@H]3C(=O)N(C4CCCCC4)C(=O)[C@@H]3CC[C@@H]12
4. O=C1C[C@H](c2ccccc2)[C@H](c2ccc(Br)cc2)O1
5. CC(=O)OC[C@H]1O[C@H](CCON=C(C)CCN2CCCc3nc(C)c(C)cc32)C=C[C@@H]1OC(C)=O
6. CC(C)C(=O)N[C@H]1CCCN1C(=O)C=Cc1ccccc1
7. O=C1CCCC=C1C(O)C1CCCCC1 (configuration not stated)
8. C[C@@H]1CC[C@@H](C(=O)O)N[C@H]1c1cccc(N2CCOCC2)c1

1. 0.0225
2. 0.106
3. -0.11
4. -0.182
5. 0.121
6. 0.276
7. -0.0325
8. 0.0624

Batch request: composite z-score for each of the following compounds.
1. CC(CCC(=O)OC[C@H]1O[C@H](C#Cc2ccccc2)C=C[C@@H]1Oc1ccc(C)cc1)=NOC[C@@H](C)[C@H](OCc1ccccc1)C(C)C
2. CC(C)[C@@H](OCc1ccccc1)[C@H](C)C=NO[C@@H](C)c1cn([C@H](CO)Cc2ccccc2)nn1

-0.325
0.209

* * *

METHOD: S. cerevisiae RM11-1a growth modifiers, primary screen, strain RM11-1a, OD600, basal, 24 h (AID 1177);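 further: cultures grown under basal conditions with no added stressor; test concentration not given here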
CONDITION DETAILS: OD600, 24 h, higher = more signal, called active from +8 up or from −8 down
Short version: z-score at least -0.002 is Fulfilled, less is Not fulfilled.

Determine whether measured z-score meets or exceeds -0.002 for "CCc1cc2c(nc1CC)CCN(CCC(C)=NOC[C@@H](C)[C@H](OCc1ccccc1)C(C)C)C2" Not fulfilled

Say whether "CC(C)(C)N1C(=O)[C@H]2[C@@H]3C(=CC[C@H]2C1=O)C(=O)[C@H]1O[C@H]1[C@H]3O" shows z-score of -0.002 or more. Not fulfilled

Is z-score at least -0.002? Consider "C=CC[C@@H]1C=C[C@H](ON=CC[C@@H]2C=C[C@H](OC(C)=O)[C@@H](COC(C)=O)O2)[C@@H](CO)O1" Fulfilled

Please check the record CCOC(=O)[C@H](Cc1ccccc1)NC(=O)CCC1CC(OC(=O)NCCc2ccc(F)cc2)CC2(CCCC(COC(=O)NCCOc3ccccc3)O2)O1 (some centres not stated) and state if its z-score is at or above -0.002. Fulfilled

* * *

So I've got a bunch of molecules here, and I need their composite z-score values.
METHOD: small-molecule microarray binders of probe aDKK1, primary screen, biochemical, biotinylated probe, 635/667 nm fluorescence (AID 1099);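 further: score merges 667nm spot fluorescence with signal to noise across triplicate slides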
CONDITION DETAILS: higher = more signal
Give bare numbers.

Entry "CO[C@@H]1C=CCC(=O)N[C@@H](C)C(=O)OC[C@@H](OC)[C@H](C)C=CCC(=O)OC[C@H]1C" : reported composite z-score = ? -0.266

Request the reported composite z-score associated with "O=C1[C@H]2[C@H]3[C@H](O)[C@H](O)CC(=NOC[C@@H](O)COCc4ccco4)[C@@H]3CC[C@H]2C(=O)N1Cc1ccc2c(c1)OCO2" -0.387

Bench note: what composite z-score did "CC(=O)OC[C@H]1O[C@@H](ON=C(C)CCC(=O)OC[C@H]2O[C@H](C#Cc3ccccc3)C=C[C@@H]2Oc2ccc(C)cc2)[C@H](OC(C)=O)[C@@H](OC(C)=O)[C@@H]1OC(C)=O" show? -0.148

I have this molecule here, "CO[C@@H]1COC(=O)[C@H](COCc2ccccc2)NC(=O)CC=C[C@@H](C)[C@H](OC)COC(=O)[C@@H](C)NC(=O)CC=C[C@H]1C" , and I need its recorded composite z-score. -0.556

Dear colleague, I am looking for the recorded composite z-score of the following molecule: "CON=C(C)CCC(=O)OC[C@H]1O[C@H](C#Cc2ccccc2)C=C[C@@H]1Oc1ccc(C)cc1" 0.0281

Requested field: composite z-score. Item: "C#CCCCON=C1C[C@@H](O)[C@@H](O)[C@@H]2[C@@H]3C(=O)N(C[C@@H]4CCCO4)C(=O)[C@@H]3CC[C@H]12" -0.201

List composite z-score for every entry below, keeping the order given.
1. O=C1CCCC=C1C(O)COCc1ccccc1 (stereo not given)
2. CC(=O)OC[C@H]1O[C@H](C#CCCc2ccccc2)C=C[C@@H]1OC(C)=O

1: -0.32; 2: -0.0993
